system: UniProt:P24941
readout type: IC50 (nM)

compound	system	observed measurement
NS(=O)(=O)c1ccc(N/N=C2\C(=O)Nc3ccc(Cl)cc32)cc1 [GW280670X]	UniProt:P24941	30

###

system: Adenylosuccinate synthetase isozyme 2 (Homo sapiens, UniProt P30520)
Sequence (P30520 whole entry): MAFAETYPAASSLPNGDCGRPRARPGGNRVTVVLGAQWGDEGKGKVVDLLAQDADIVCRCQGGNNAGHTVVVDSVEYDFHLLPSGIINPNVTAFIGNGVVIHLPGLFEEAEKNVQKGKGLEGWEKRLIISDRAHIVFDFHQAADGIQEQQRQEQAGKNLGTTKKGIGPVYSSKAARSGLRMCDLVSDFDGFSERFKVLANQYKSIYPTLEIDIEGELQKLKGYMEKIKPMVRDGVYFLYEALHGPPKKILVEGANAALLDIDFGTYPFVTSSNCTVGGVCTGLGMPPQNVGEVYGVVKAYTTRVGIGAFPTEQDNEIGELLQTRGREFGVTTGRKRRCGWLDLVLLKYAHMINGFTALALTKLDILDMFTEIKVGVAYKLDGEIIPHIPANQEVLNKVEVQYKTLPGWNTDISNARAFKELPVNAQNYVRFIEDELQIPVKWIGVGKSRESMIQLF
pIC50: −log10 of the molar value.
# maps each entry to its pIC50

smiles notation	pIC50
O=CN(O)[C@@H](CCCN1C(=O)N[C@@]2(O[C@H](COP(=O)(O)O)[C@@H](O)[C@H]2O)C1=O)C(=O)O	7.37
O=C1NC(=O)[C@@]2(N1)O[C@H](COP(=O)(O)O)[C@@H](O)[C@H]2O	6.17
